assayDetails: Selectivity index, ratio of IC50 for AChE (unknown origin) to IC50 for equine serum BuChE
Is Ratio IC50 at least 0.8? Then YES. If not, NO.

INSERT INTO results (molecule, assignedlabel) VALUES
  ('O=C(C[C@H]1C[C@H]2CCCN2[C@]12C(=O)Nc1ccccc12)N1C/C(=C\c2ccccc2F)C(=O)[C@]2(C[C@H]3CCCN3[C@@]23C(=O)Nc2ccccc23)C1 (racemic)', 'YES'),
  ('C=CC(=O)N1C/C(=C\c2ccccc2F)C(=O)/C(=C/c2ccccc2F)C1', 'NO'),
  ('O=C1/C(=C/c2ccc(Cl)cc2Cl)CN(C(=O)C[C@H]2C[C@H]3CCCN3[C@]23C(=O)Nc2ccccc23)C/C1=C\c1ccc(Cl)cc1Cl (racemic)', 'NO'),
  ('O=C1/C(=C/c2cccc3ccccc23)CN(C(=O)C[C@H]2C[C@H]3CCCN3[C@]23C(=O)Nc2ccccc23)C/C1=C\c1cccc2ccccc12 (racemic)', 'NO');

Query :: Reported Ratio IC50 reaches at least 0.8 for C=CC(=O)N1C/C(=C\c2cccc([N+](=O)[O-])c2)C(=O)/C(=C/c2cccc([N+](=O)[O-])c2)C1 ?
Result :: NO

Query :: Given O=C(C[C@H]1C[C@H]2CCCN2[C@]12C(=O)Nc1ccccc12)N1C/C(=C\c2ccc(F)cc2)C(=O)[C@]2(C[C@H]3CCCN3[C@@]23C(=O)Nc2ccccc23)C1 (racemic) , state whether its Ratio IC50 is at least 0.8.
Result :: YES

Query :: Item COc1ccccc1/C=C1\CN(C(=O)C[C@H]2C[C@H]3CCCN3[C@]23C(=O)Nc2ccccc23)C/C(=C\c2ccccc2OC)C1=O (racemic) with Ratio IC50 of 0.8 or above?
Result :: YES

Query :: Form field: Ratio IC50 at least 0.8? Entry: C=CC(=O)N1C/C(=C\c2ccc(F)cc2)C(=O)/C(=C/c2ccc(F)cc2)C1
Result :: NO

Query :: Check if Ratio IC50 >= 0.8 (inclusive). Item: Cc1ccc(/C=C2\CN(C(=O)C[C@H]3C[C@H]4CCCN4[C@]34C(=O)Nc3ccccc34)C[C@@]3(C[C@H]4CCCN4[C@@]34C(=O)Nc3ccccc34)C2=O)cc1 (racemic)
Result :: YES

Query :: Is reported Ratio IC50 greater than or equal to 0.8 here: O=C1/C(=C/c2ccc(F)cc2)CN(C(=O)C[C@H]2C[C@H]3CCCN3[C@]23C(=O)Nc2ccccc23)C/C1=C\c1ccc(F)cc1 (racemic)
Result :: YES

Query :: Exam item: decide whether the reported Ratio IC50 for O=C1/C(=C/c2ccccc2Cl)CN(C(=O)C[C@H]2C[C@H]3CCCN3[C@]23C(=O)Nc2ccccc23)C/C1=C\c1ccccc1Cl (racemic) is at least 0.8.
Result :: NO

Query :: Quick check: does O=C1/C(=C/c2ccccc2F)CN(C(=O)C[C@H]2C[C@H]3CCCN3[C@]23C(=O)Nc2ccccc23)C/C1=C\c1ccccc1F (racemic) have Ratio IC50 greater than or equal to 0.8?
Result :: YES

----------
systemName: Cholinesterase (Equus caballus)
Sequence (P81908 whole entry): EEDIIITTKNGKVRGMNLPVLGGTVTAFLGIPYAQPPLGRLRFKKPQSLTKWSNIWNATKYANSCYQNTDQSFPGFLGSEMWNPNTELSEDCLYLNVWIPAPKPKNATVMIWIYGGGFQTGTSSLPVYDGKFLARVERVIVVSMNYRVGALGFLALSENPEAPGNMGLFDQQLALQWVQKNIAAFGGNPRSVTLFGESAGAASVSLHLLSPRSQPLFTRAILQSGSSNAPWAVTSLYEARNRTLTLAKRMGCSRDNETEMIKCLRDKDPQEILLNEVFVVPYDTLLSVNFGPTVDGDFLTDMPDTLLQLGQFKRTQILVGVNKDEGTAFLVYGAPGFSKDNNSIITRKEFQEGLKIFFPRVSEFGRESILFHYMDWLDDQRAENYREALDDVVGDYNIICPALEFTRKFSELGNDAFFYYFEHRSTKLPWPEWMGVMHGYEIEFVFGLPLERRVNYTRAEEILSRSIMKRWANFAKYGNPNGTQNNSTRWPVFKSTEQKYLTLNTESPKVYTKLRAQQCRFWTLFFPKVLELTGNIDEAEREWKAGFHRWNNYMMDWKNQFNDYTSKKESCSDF
assayDetails: Inhibition of equine serum BuChE using S-butyrylthiocholine chloride substrate by Ellman's method based spectrophotometry
Here the recorded pIC50 is given for each entry.
Keep it numeric: pIC50 is minus log10 of the concentration in mol/L.

Example results:
INSERT INTO assay_data (molecule, quantitativereadout) VALUES
  ('O=C1/C(=C/c2cccc([N+](=O)[O-])c2)CN(C(=O)C[C@H]2C[C@H]3CCCN3[C@]23C(=O)Nc2ccccc23)C/C1=C\c1cccc([N+](=O)[O-])c1 (racemic)', 4.74),
  ('O=C1/C(=C/c2ccccc2F)CN(C(=O)C[C@H]2C[C@H]3CCCN3[C@]23C(=O)Nc2ccccc23)C/C1=C\c1ccccc1F (racemic)', 5.46),
  ('O=C(C[C@H]1C[C@H]2CCCN2[C@]12C(=O)Nc1ccccc12)N1C/C(=C\c2ccc(Cl)cc2)C(=O)[C@]2(C[C@H]3CCCN3[C@@]23C(=O)Nc2ccccc23)C1 (racemic)', 4.96);

Query :: Name the recorded pIC50 for O=C(C[C@H]1C[C@H]2CCCN2[C@]12C(=O)Nc1ccccc12)N1C/C(=C\c2ccc(F)cc2)C(=O)[C@]2(C[C@H]3CCCN3[C@@]23C(=O)Nc2ccccc23)C1 (racemic) .
Result :: 5.08

Query :: State the recorded pIC50 for this entry: C=CC(=O)N1C/C(=C\c2cccc3ccccc23)C(=O)/C(=C/c2cccc3ccccc23)C1
Result :: 4.64

Query :: # get_value(readout='pIC50', item= C=CC(=O)N1C/C(=C\c2ccc(Cl)cc2)C(=O)/C(=C/c2ccc(Cl)cc2)C1 )
Result :: 4.42

Query :: I would be grateful if you could share the reported pIC50 for Cc1ccccc1/C=C1\CN(C(=O)C[C@H]2C[C@H]3CCCN3[C@]23C(=O)Nc2ccccc23)C[C@@]2(C[C@H]3CCCN3[C@@]23C(=O)Nc2ccccc23)C1=O (racemic) .
Result :: 4.89

Query :: Using the record for C=CC(=O)N1C/C(=C\c2ccccc2)C(=O)/C(=C/c2ccccc2)C1 , report its pIC50.
Result :: 4.66
